The reported numbers originate from PubChem BioAssay (NCI).

# System: IGROV1 ovarian
# METHOD_DESCRIPTION: NCI tumour cell line growth inhibition, 48 h; in the data active = GI50 below about 0.43 µM; inactive = the rest
Field 'call' accepts active, inactive

O=C1Nc2cc(-c3cccc(O)c3)ccc2/C1=C/c1ccc[nH]1 | inactive
Cc1ccc(S(=O)(=O)OCC#CCOS(=O)(=O)c2ccc(C)cc2)cc1 | inactive
Cc1cc(C(=O)/C=C/c2ccc[nH]2)ccc1-n1ccc(C(F)(F)F)n1 | inactive

What did this assay record as the result for COc1cc(-n2cc(-c3ccccc3)[nH]c2=O)cc(OC)c1OC ? inactive

What did this assay record as the result for CC[C@@]1(OC(=O)CN(C)C)C(=O)OCc2c1cc1n(c2=O)Cc2cc3c(N)cccc3nc2-1 ? active

What did this assay record as the result for O=C(CSCC(=O)N/N=C/c1ccccc1O)N/N=C\c1ccccc1O ? inactive

What did this assay record as the result for O=C1/C=C/[C@@H](O)[C@@H]2C[C@@H](O)C[C@H]2/C=C/CCC[C@H](CCc2ccc3ncccc3c2)O1 ? active

What did this assay record as the result for CO[C@@H]1CCN(c2nccc(Nc3cc4c(C(C)C)ccc(N5CC(CS(C)(=O)=O)[C@H]5C)c4cn3)n2)C[C@@H]1F (some centres undefined) ? inactive

What did this assay record as the result for CCCCCCCCCCCCCCCCCCNCc1ccc(Cl)cc1 ? inactive
